# EXPERIMENT NOTES: absolute recovery over vacuum-assisted evaporative concentration; higher = better recovery
# MEASUREMENT CONDITIONS: wastewater effluent; enrichment method: VEC
Overview of reported absolute recovery across a group of molecules:
ENDPOINT NAME: absolute recovery (%)

MOLECULE | ENDPOINT NAME | VALUE OBSERVED
CCn1cc(C(=O)[O-])c(=O)c2cc(F)c(N3CC[NH2+]CC3)cc21 [Norfloxacin] | absolute recovery | 104
C[NH+](C)C(C)(C)CO [2-(Dimethylamino)-2-methyl-1-propanol] | absolute recovery | 108
COc1nc(NC(=O)[N-]S(=O)(=O)c2ccccc2C(F)(F)F)nc(C(F)(F)F)n1 [Tritosulfuron] | absolute recovery | 94.7
N#CN=C1SCCN1Cc1ccc(Cl)nc1 [Thiacloprid] | absolute recovery | 102
O=C(Nc1ccccc1-c1ccc(Cl)cc1)c1cccnc1Cl [Boscalid] | absolute recovery | 88.4
Cc1nnc(-c2ccccc2)c(=O)[n-]1 [Metamitron-Desamino] | absolute recovery | 112
CCCC(CCC)(C(=O)[O-])C(=O)O [Dipropylmalonic-acid] | absolute recovery | 103
Fc1ccc(C2(Cn3cncn3)OC2c2ccccc2Cl)cc1 (stereo unspecified) [Epoxiconazol] | absolute recovery | 103
O=C(NCCc1ncc(C(F)(F)F)cc1Cl)c1ccccc1C(F)(F)F [Fluopyram] | absolute recovery | 105
Cc1ccc(NS(=O)(=O)N(C)C)cc1 [N-N-dimethyl-N-(4-methylphenyl)-sulfamide] | absolute recovery | 99.5
COc1ccc(CN(CC[NH+](C)C)c2ccccn2)cc1 [Pyrilamine] | absolute recovery | 94
COC(=O)C(Cc1ccccc1)NC(=O)C(CC(=O)[O-])[NH2+]CCC(C)(C)C (stereo unspecified) [Neotam] | absolute recovery | 89.2
CS(=O)(=O)c1ccc(C(=O)[O-])c([N+](=O)[O-])c1 [Mesotrion-MNBA] | absolute recovery | 98.9
COc1ccc(C(=O)c2ccccc2)c(O)c1 [Benzophenon-3 (=2-Hydroxy-4-methoxybenzophenon)] | absolute recovery | 51.4
Cc1cn(C2CC(N=[N+]=[N-])C(CO)O2)c(=O)[nH]c1=O (stereo unspecified) [Zidovudine] | absolute recovery | 103
C[NH2+]C(C)Cc1ccccc1 (stereo unspecified) [Methamphetamin] | absolute recovery | 100
CC(=O)Nc1ccc(S(=O)(=O)[N-]c2cc(C)on2)cc1 [N4-Acetyl-Sulfamethoxazol] | absolute recovery | 108
CCc1cc(C)cc(CC)c1-c1c(OC(=O)C(C)(C)C)n2n(c1=O)CCOCC2 [Pinoxaden] | absolute recovery | 51.6
CCC1OC(=O)C(C)C(OC2CC(C)(OC)C(O)C(C)O2)C(C)C(OC2OC(C)CC([NH+](C)C)C2O)C(C)(O)CC(C)C(=NOCOCCOC)C(C)C(O)C1(C)O (stereo unspecified) [Roxithromycin] | absolute recovery | 90.2
C[NH+]=C([N-][N+](=O)[O-])NCc1cnc(Cl)s1 [Clothianidin] | absolute recovery | 104
CCCN(CCC)c1c([N+](=O)[O-])cc(S(N)(=O)=O)cc1[N+](=O)[O-] [Oryzalin] | absolute recovery | 105
CON=C(C1=NOCCO1)c1ccccc1Oc1ncnc(Oc2ccccc2Cl)c1F [Fluoxastrobin] | absolute recovery | 94.1
COCC(=O)N(c1c(C)cccc1C)C(C)C(=O)OC (stereo unspecified) [Metalaxyl] | absolute recovery | 103
Cc1nc(N(C)C)nc(OC(=O)N(C)C)c1C [Pirimicarb] | absolute recovery | 102
Cc1cc(Cl)ccc1OC(C)C(=O)[O-] (stereo unspecified) [Mecoprop] | absolute recovery | 101
CCC(C)C(=O)OC1CC(O)C=C2C=CC(C)C(CCC(O)CC(O)CC(=O)[O-])C21 (stereo unspecified) [Pravastatin] | absolute recovery | 99.2
COc1cccc(C(=O)NN(C(=O)c2cc(C)cc(C)c2)C(C)(C)C)c1C [Methoxyfenozid] | absolute recovery | 104
C=C1CC2C(CCC3(C)C(=O)CCC23)C2(C)C=CC(=O)C=C12 (stereo unspecified) [Exemestan] | absolute recovery | 100
COc1ccc(C(C[NH3+])C2(O)CCCCC2)cc1 (stereo unspecified) [N-N-Didesvenlafaxin] | absolute recovery | 105
Nc1c(I)c(N)c(I)c(C(=O)[O-])c1I [3-5-Diamino-2-4-6-triiodobenzoic-acid] | absolute recovery | 104
CON(C)C(=O)Nc1ccc(Cl)c(Cl)c1 [Linuron] | absolute recovery | 101
Cc1cc(N(C2OC(C(=O)[O-])C(O)C(O)C2O)S(=O)(=O)c2ccc(N)cc2)no1 (stereo unspecified) [Sulfamethoxazole-N1-Glucuronide] | absolute recovery | 96.4
COC=C(C(=O)[O-])c1ccccc1Oc1cc(Oc2ccccc2C#N)ncn1 [Azoxystrobin-acid] | absolute recovery | 101
CCCCCCCCCCCC[N+](C)(C)C [Dodecyltrimethylammonium] | absolute recovery | 99.1
O=C(Nc1ccccc1)N(Cc1ccc(Cl)cc1)C1CCCC1 [Pencycuron] | absolute recovery | 117
CCCC(NC(C)C(=O)N1C(C(=O)[O-])CC2CCCCC21)C(=O)OCC (stereo unspecified) [Perindopril] | absolute recovery | 95
